B1: Caulobacter ParB omega fusion; a variant is named by its letters at X, in order, B8GW30 (parent)
chain: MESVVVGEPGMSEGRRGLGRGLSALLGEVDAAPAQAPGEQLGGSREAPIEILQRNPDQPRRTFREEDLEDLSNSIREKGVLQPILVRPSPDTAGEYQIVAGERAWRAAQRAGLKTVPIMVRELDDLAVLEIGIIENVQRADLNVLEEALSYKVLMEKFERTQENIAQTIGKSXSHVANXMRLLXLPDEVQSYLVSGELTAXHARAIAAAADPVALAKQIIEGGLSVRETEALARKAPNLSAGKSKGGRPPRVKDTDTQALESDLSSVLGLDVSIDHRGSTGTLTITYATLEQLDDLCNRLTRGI

Variants of: B1
Test: one-hybrid fitness for binding NBS DNA (the Noc-binding site; scaled: cognate 1, non-cognate 0); higher = stronger binding
Conditions: with NBS DNA site
The full ranking holds about 81,000 sequences; the median of “one-hybrid fitness for binding NBS DNA” is about -0.1, and the highest 2% start at about 0.36. This excerpt belongs to a sample that is enriched for the highest values.
Measured one-hybrid fitness for binding NBS DNA accompanies every entry in the list below.

Before answering, review these 8 worked examples.
>  <MUTANT_CODE>
TTSN

>  <RESULT>
≤ 0.2

$$$$
>  <MUTANT_CODE>
QYKE

>  <RESULT>
0.213

$$$$
>  <MUTANT_CODE>
NQDG

>  <RESULT>
≤ 0.2

$$$$
>  <MUTANT_CODE>
GTMM

>  <RESULT>
≤ 0.2

$$$$
>  <MUTANT_CODE>
QYKY

>  <RESULT>
0.479

$$$$
>  <MUTANT_CODE>
IART

>  <RESULT>
≤ 0.2

$$$$
>  <MUTANT_CODE>
SQTP

>  <RESULT>
≤ 0.2

$$$$
>  <MUTANT_CODE>
QYKN

>  <RESULT>
0.366

$$$$

Looking up IQNS , I see its one-hybrid fitness for binding NBS DNA listed as ≤ 0.2

Recorded result, QYLN , one-hybrid fitness for binding NBS DNA: ≤ 0.2

get_value(item= QYVY , readout=one-hybrid fitness for binding NBS DNA) returns ≤ 0.2

Please fill in: one-hybrid fitness for binding NBS DNA reported for QYLT = 0.383

So, YFPL ? Its one-hybrid fitness for binding NBS DNA was ≤ 0.2
